src = the supplement of paper PMC10567573

Assay: protein stability index of a GFP-peptide fusion (GPS, HEK-293T) (PSI 1-6); higher = more stable;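 note: 24-mer peptide tiles fused after GFP, lentivirally expressed, FACS-sorted into six equal bins by GFP/DsRed ratio, decoded by Illumina sequencing, PSI is the read-weighted mean bin number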
Details: treatment: DMSO; c terminus: a fixed tail appended
# protein stability index per entry
Field format: numeric only.

Need protein stability index of LNCPFCGARLGGFNFVSTPKCSCG [RNF180] , thanks.
2.25

Need protein stability index of AERVTLADFKGVLQRPSYKFFFKS [DVL3] , thanks.
2.29

Need protein stability index of NSEEEEDDDDEEEEVSEVESFILD [ANKRD17] , thanks.
5.06

Need protein stability index of GKTPVCHQCHKVIRGRYLVALGHA [PDLIM7] , thanks.
2.1

Need protein stability index of IPTVKPLKPRPEPPKKPSNWRRKH [ZC2HC1A] , thanks.
4.2

Need protein stability index of YRLGYFDDALEDFKKVLDLNPGFQ [TTC32] , thanks.
2.59

Need protein stability index of FLEALSSRYLGDSGLDDFFLDIDT [SERTAD3] , thanks.
2.4
